From: patent US10065973B2

target: human TLR7 (Homo sapiens (Human), UniProt Q9NYK1); experiment: HEK293-Blue-hTLR-7 cells assay (SEAP reporter); conditions: 20 hours incubation
Sequence (Q9NYK1 27-1049): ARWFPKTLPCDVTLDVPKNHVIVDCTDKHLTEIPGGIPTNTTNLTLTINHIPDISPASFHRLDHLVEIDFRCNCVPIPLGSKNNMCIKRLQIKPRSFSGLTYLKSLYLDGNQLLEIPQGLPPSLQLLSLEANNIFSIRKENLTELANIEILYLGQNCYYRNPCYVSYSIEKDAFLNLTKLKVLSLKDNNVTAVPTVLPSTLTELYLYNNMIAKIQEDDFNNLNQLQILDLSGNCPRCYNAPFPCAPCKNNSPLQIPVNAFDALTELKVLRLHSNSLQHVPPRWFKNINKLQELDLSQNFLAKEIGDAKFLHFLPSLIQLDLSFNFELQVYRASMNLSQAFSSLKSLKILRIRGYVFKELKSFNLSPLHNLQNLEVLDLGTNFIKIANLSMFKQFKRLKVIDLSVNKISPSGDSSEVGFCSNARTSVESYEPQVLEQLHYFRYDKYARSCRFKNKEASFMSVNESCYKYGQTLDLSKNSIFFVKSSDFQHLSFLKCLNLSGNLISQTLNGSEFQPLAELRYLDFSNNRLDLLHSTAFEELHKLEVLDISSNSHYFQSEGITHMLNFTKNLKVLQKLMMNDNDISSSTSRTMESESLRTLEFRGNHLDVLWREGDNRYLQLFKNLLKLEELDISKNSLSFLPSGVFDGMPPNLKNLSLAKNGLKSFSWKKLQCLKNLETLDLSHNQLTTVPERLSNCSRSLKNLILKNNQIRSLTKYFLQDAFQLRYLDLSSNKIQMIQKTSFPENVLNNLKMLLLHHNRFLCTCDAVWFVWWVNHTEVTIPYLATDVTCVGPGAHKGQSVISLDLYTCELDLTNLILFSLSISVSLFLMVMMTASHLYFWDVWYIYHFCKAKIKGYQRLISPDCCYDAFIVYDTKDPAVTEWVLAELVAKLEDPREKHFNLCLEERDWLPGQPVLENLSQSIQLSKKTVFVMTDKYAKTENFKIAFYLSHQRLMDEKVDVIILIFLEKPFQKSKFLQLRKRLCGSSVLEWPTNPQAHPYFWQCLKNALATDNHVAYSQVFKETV
REPORTED_ENDPOINT: EC50 (µM)

P: CC(C)(O)[C@@H]1C[C@@H](CO)O[C@H]1n1c(=O)sc2c(=O)[nH]c(N)nc21
Q: CC[C@H](O)[C@@H]1C[C@@H]([C@@H](C)OC(C)=O)[C@H](n2c(=O)sc3c(=O)[nH]c(N)nc32)O1
R: CC[C@H](O)[C@@H]1C[C@@H]([C@@H](C)OCc2ccccc2)[C@H](n2c(=O)sc3c(=O)[nH]c(N)nc32)O1
S: CC[C@H](O)[C@@H]1C[C@@H](C(C)(C)O)[C@H](n2c(=O)sc3c(=O)[nH]c(N)nc32)O1
## Task Sort the entries above by EC50, largest first. To answer, write out the labels according to the requested order.
## Result R, P, Q, S

###

molecular target: human TLR7 (Homo sapiens (Human)); assay: HEK293-Blue-hTLR-7 cells assay (SEAP reporter); details: 20 hours incubation
pEC50: −log10 of the molar value.
REPORTED_ENDPOINT: pEC50

Below: 5 molecules and their reported pEC50.
Nc1nc2c(sc(=O)n2[C@@H]2O[C@H](CO)C[C@H]2C(O)c2ccccc2)c(=O)[nH]1 (single isomer, unassigned) [Example 4-A] ... 3.69
CC[C@H](OC(C)=O)[C@@H]1C[C@@H]([C@@H](C)O)[C@H](n2c(=O)sc3c(=O)[nH]c(N)nc32)O1 [Example 17] ... 4.82
CC[C@H](O)[C@@H]1C[C@@H]([C@@H](C)OC)[C@H](n2c(=O)sc3c(=O)[nH]c(N)nc32)O1 [Example 13] ... 4.44
CC[C@H](O)[C@@H]1C[C@@H]([C@@H](C)OC(=O)c2ccccc2)[C@H](n2c(=O)sc3c(=O)[nH]c(N)nc32)O1 [Example 12] ... 5.19
CC[C@H](O)[C@@H]1C[C@@H]([C@H](C)OC(C)=O)[C@H](n2c(=O)sc3c(=O)[nH]c(N)nc32)O1 [Example 9-B] ... 5.03

I: C=CCO[C@H](C)[C@@H]1C[C@@H]([C@@H](O)CC)O[C@H]1n1c(=O)sc2c(=O)[nH]c(N)nc21 [Example 15]
II: CC[C@H](O)[C@@H]1C[C@@H]([C@H](O)c2ccccc2)[C@H](n2c(=O)sc3c(=O)[nH]c(N)nc32)O1 (single isomer, unassigned) [Example 18-A]
III: CCC(O)[C@@H]1C[C@@H](CO)O[C@H]1n1c(=O)sc2c(=O)[nH]c(N)nc21 (single isomer, unassigned) [Example 3-A]
IV: CC(O)[C@@H]1C[C@@H](CO)O[C@H]1n1c(=O)sc2c(=O)[nH]c(N)nc21 (single isomer, unassigned) [Example 1-B]
V: Nc1nc2c(sc(=O)n2[C@@H]2O[C@H](CO)C[C@H]2[C@H](O)c2ccccn2)c(=O)[nH]1 [Example 7]
## Task Ascending sort, pEC50. Answer format: list of labels, ordered as asked.
## Result V, III, I, IV, II

A: Nc1nc2c(sc(=O)n2[C@@H]2O[C@H](CO)C[C@H]2C(O)C2CC2)c(=O)[nH]1 (single isomer, unassigned) [Example 2-A]
B: CC[C@H](O)[C@@H]1C[C@@H]([C@H](C)O)[C@H](n2c(=O)sc3c(=O)[nH]c(N)nc32)O1 [Example 10-B]
## Task Sorting by pEC50 in descending order, would A or B appear first? Your choice should be expressed through its label.
## Result B
(B: 4.46, A: 3.81)
